Every entry's value here was drawn from patent US12006344.

- system: T1, human MIC-1 receptor (hGFRAL, GDNF family receptor alpha like) (human, UniProt Q6UXV0 19-394)
- T1 sequence (looked up): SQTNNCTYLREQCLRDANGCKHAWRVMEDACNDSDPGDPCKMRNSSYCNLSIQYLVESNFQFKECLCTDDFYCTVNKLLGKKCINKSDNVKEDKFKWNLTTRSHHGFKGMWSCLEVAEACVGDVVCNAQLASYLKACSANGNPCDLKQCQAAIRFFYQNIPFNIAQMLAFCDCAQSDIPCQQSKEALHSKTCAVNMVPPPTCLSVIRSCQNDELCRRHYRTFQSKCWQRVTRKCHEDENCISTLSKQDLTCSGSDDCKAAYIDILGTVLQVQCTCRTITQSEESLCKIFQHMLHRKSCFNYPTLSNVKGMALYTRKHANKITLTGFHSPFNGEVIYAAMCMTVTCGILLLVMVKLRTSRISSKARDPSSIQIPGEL
- experimental protocol: cell-based or functional assay
parameter measured: pERK EC50 (nM)

(A) MIC-1(R2A, N3E, R53E) (ligand) AAEGDHCPLGPGRCCRLHTVRASLEDLGWADWVLSPREVQVTMCIGACPSQFEAANMHAQIKTSLHRLKPDTVPAPCCVPASYNPMVLIQKTDTGVSLQTYDDLLAKDCHCI
(B) A(GPEQGQEP)3-MIC-1-Δ1-3 (ligand) AGPEQGQEPGPEQGQEPGPEQGQEPGDHCPLGPGRCCRLHTVRASLEDLGWADWVLSPREVQVTMCIGACPSQFRAANMHAQIKTSLHRLKPDTVPAPCCVPASYNPMVLIQKTDTGVSLQTYDDLLAKDCHCI
Please tell me which of the two, A or B , has the higher reported pERK EC50 (nM) value. Kindly give the label for the entry you pick.
B
(B: 0.8 nM, A: 0.4 nM)
